Each record here notes measured Cmax.
Test: Pharmacokinetic study of R/S OXY and DEO enantiomers, transdermal oxybutynin gel (Example 20)
Assay type: in vivo, human
Settings: single-dose topical 84 mg OXY gel, abdominal area, normalized to 84 mg, mean ± SD, N = 10
observation_type: Cmax

- structure_string: "CCNCC#CCOC(=O)[C@@](O)(c1ccccc1)C1CCCCC1"
  observation_type: "Cmax"
  data_value: "6.9 ± 3.8 ng/mL"
- structure_string: "CCN(CC)CC#CCOC(=O)[C@](O)(c1ccccc1)C1CCCCC1"
  observation_type: "Cmax"
  data_value: "3.6 ng/mL"
- structure_string: "CCNCC#CCOC(=O)[C@](O)(c1ccccc1)C1CCCCC1"
  observation_type: "Cmax"
  data_value: "6.3 ng/mL"
- structure_string: "CCN(CC)CC#CCOC(=O)[C@@](O)(c1ccccc1)C1CCCCC1"
  observation_type: "Cmax"
  data_value: "5.8 ± 2.6 ng/mL"
